Where these numbers come from: patent EP4692071A1

What A23 (-) was measured for each of the following?
- TEST: 23°C color optical density (A23): absorbancy difference ε(240)-ε(0) after 240 s light irradiation at 23°C
- Assay type: physicochemical
- TEST_PARAMETERS: photochromic laminate by coating method, 240 s irradiation, at the maximum absorption wavelength

In the examples that follow, each entry is paired with its recorded A23 (-).
COMPOUND: CCCCCCCCC1(CCCCCCCC)c2cc([Si](c3ccccc3)(c3ccccc3)c3ccccc3)ccc2-c2c1c1c(c3cc(OC)c(N(c4ccccc4)c4ccccc4)cc23)OC(c2ccc(OCCC)cc2)(c2ccc(OCCC)cc2)C=C1 [Example 56 Formula (128)]
A23 (-): 1.80 -
//
COMPOUND: CCCCOc1ccc(C2(c3ccc(OC)cc3)C=Cc3c4c(c5cc(N(C)c6ccccc6)c(OC)cc5c3O2)-c2ccc(-c3ccc(C(C)(C)C)cc3)cc2C4(CC)CC)cc1 (stereo not shown) [Example 45 Formula (94)]
A23 (-): 1.21 -
//
COMPOUND: COc1ccc(C2(c3ccc(OC)cc3)C=Cc3c4c(c5cc(N(c6ccccc6)c6ccccc6)c(OC)cc5c3O2)-c2ccccc2C4(C)C)cc1 [Example 2 Formula (30)]
A23 (-): 1.49 -

// batch mode: one A23 (-) value per listed entry
1. CCCC1(CCC)c2ccccc2-c2c1c1c(c3cc(OC)c(N(C)c4ccccc4)cc23)OC(c2ccc(OC)cc2)(c2ccc(N(c3ccccc3)c3ccccc3)cc2)C=C1 (stereo not shown) [Example 21 Formula (87)]
2. CCCCCCOc1ccc(C2(c3ccc(OC)cc3)C=Cc3c4c(c5cc(N(c6ccc(C)cc6)c6ccc(OC)cc6)c(OC)cc5c3O2)-c2ccccc2C42CC(C)(C)CC(C)(C)C2)cc1 (stereo not shown) [Example 15 Formula (75)]
3. CCCCC1(CCCC)c2cc([Si](C)(C)C(C)(C)C)ccc2-c2c1c1c(c3cc(OC)c(N(CC)c4ccccc4)cc23)OC(c2ccc(OC)cc2)(c2ccc(OCCC)cc2)C=C1 (stereo not shown) [Example 46 Formula (99)]
4. COc1ccc(C2(c3ccc(N4CCOCC4)cc3)C=Cc3c4c(c5cc(N6CCCc7ccccc76)c(OC)cc5c3O2)-c2ccc(C)cc2C4(CCCC(F)(F)F)CCCC(F)(F)F)cc1 (stereo not shown) [Example 8 Formula (54)]

Solution:
["1.26 -", "1.20 -", "1.29 -", "1.18 -"]

// batch mode: one A23 (-) value per listed entry
1. CCCCN(c1ccc(F)cc1)c1cc2c3c(c4c(c2cc1OC)OC(c1ccc(OC)cc1)(c1ccc(OC)cc1)C=C4)C(CCCCOC)(CCCCOC)c1ccccc1-3 [Example 16 Formula (77)]
2. CCCCC1(CCCC)c2ccccc2-c2c1c1c(c3cc(OC)c(N(c4ccc(F)cc4)c4ccc(F)cc4)cc23)OC(c2ccc(OC)cc2)(c2ccc(OC)cc2)C=C1 [Example 12 Formula (66)]
3. CCCC1(CCC)c2ccccc2-c2c1c1c(c3cc(OC)c(N(c4ccccc4)c4ccc(C)cc4)cc23)OC(c2ccc(OC)cc2)(c2ccc(OC)cc2)C=C1 [Example 13 Formula (68)]

Solution:
1. 1.25 -
2. 1.38 -
3. 1.57 -
